Test system: Saos-2 cell line
Assay: MTT assay, toxicity (cell viability), Saos-2
Assay type: cell-based
Settings: Saos-2, 24 h, 10 μM
Could you mark each record Satisfied if its % Cell viability falls strictly under 90%, and Not satisfied if it equals or exceeds it?

compound: CC(=O)NCCNC(=O)CNC(=O)C1CC(=O)N(CCc2ccc(Cl)cc2Cl)CC(=O)N1CCC(c1ccccc1)c1ccccc1 (stereo not drawn)
classification: Not satisfied

compound: CCCCN(CC(N)=O)C(=O)C1CC(=O)N(CCc2ccc(Cl)cc2Cl)CC(=O)N1CCC(c1ccccc1)c1ccccc1 (stereo not drawn)
classification: Satisfied

compound: NC(=O)CN(CC1CCCO1)C(=O)C1CC(=O)N(CCc2ccc(Cl)cc2Cl)CC(=O)N1CCC(c1ccccc1)c1ccccc1 (stereo not drawn)
classification: Not satisfied

compound: NCCCCC(NC(=O)CN(CCc1ccc(Cl)cc1Cl)C(=O)C1CC(=O)N(CCc2ccc(Cl)cc2Cl)CC(=O)N1CCC(c1ccccc1)c1ccccc1)C(N)=O (stereo not drawn)
classification: Satisfied

compound: NC(=O)CN(C(=O)C1CC(=O)N(CCc2ccc(Cl)cc2Cl)CC(=O)N1CCC(c1ccccc1)c1ccccc1)C1CC1 (stereo not drawn)
classification: Not satisfied

compound: COc1ccccc1CCN(CC(N)=O)C(=O)C1CC(=O)N(CCc2ccc(Cl)cc2Cl)CC(=O)N1CCC(c1ccccc1)c1ccccc1 (stereo not drawn)
classification: Not satisfied

compound: NC(=O)CN(CCc1ccccc1F)C(=O)C1CC(=O)N(CCc2ccc(Cl)cc2Cl)CC(=O)N1CCC(c1ccccc1)c1ccccc1 (stereo not drawn)
classification: Satisfied

compound: NC(=O)CN(CCc1ccc(Cl)cc1)C(=O)C1CC(=O)N(CCc2ccc(Cl)cc2Cl)CC(=O)N1CCC(c1ccccc1)c1ccccc1 (stereo not drawn)
classification: Not satisfied
